System: 519858-162-T-J1-PDC complex spheroid viability;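 also: spheroids exposed to compounds for 7 days; 100% = DMSO vehicle control viability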
Assay: Anticancer human tumor 519858-162-T-J1-PDC patient-derived colon adenocarcinoma cell line growth inhibition [GQUAD]
Details: second compound 1 µM; first compound 0.316 µM; active compounds read low
Checkbox rule: viability, T/C lower than 60% = label 1; viability, T/C not lower than 60% = label 0.

Completed entries (count: 5):
compound	assay target	assigned category
COc1ccc([C@@H](O)c2cc(-c3ncnc4cc(N5CCOCC5)ccc34)c(F)cc2Cl)nn1 + Cc1[nH]c2ccc(F)cc2c1-c1nc2c3cccnc3c3ncccc3c2[nH]1	519858-162-T-J1-PDC complex spheroid viability	label 0
Cc1[nH]c2ccccc2c1CCNCc1ccc(/C=C/C(=O)NO)cc1 + Cc1[nH]c2ccc(F)cc2c1-c1nc2c3cccnc3c3ncccc3c2[nH]1	519858-162-T-J1-PDC complex spheroid viability	label 1
O=C(c1cc(Cc2n[nH]c(=O)c3ccccc23)ccc1F)N1CCN(C(=O)C2CC2)CC1 + Cc1cnc(CNC(=O)c2c(=O)c3ccc(N4CCCN(C)CC4)nc3n3c2sc2ccccc23)cn1	519858-162-T-J1-PDC complex spheroid viability	label 1
CC1COCCN1c1cc(-c2ccnn2C)c2ccnc(-c3ccn[nH]3)c2n1 (stereo unspecified) + Cc1cnc(CNC(=O)c2c(=O)c3ccc(N4CCCN(C)CC4)nc3n3c2sc2ccccc23)cn1	519858-162-T-J1-PDC complex spheroid viability	label 1
C#Cc1c(F)ccc2cc(O)cc(-c3ncc4c(N5CC6CCC(C5)N6)nc(OCC56CCCN5CC(F)C6)nc4c3F)c12 (stereo unspecified) + Cc1[nH]c2ccc(F)cc2c1-c1nc2c3cccnc3c3ncccc3c2[nH]1	519858-162-T-J1-PDC complex spheroid viability	label 0

Please check: viability, T/C for CCc1c2c(nc3ccc(O)cc13)-c1cc3c(c(=O)n1C2)COC(=O)[C@]3(O)CC + Cc1[nH]c2ccc(F)cc2c1-c1nc2c3cccnc3c3ncccc3c2[nH]1 , strictly under 60% or not?
label 0

Would you kindly verify if viability, T/C of COc1cccc2c1C(=O)c1c(O)c3c(c(O)c1C2=O)CC(O)(C(=O)CO)CC3OC1CC(N)C(O)C(C)O1 (stereo unspecified) + Cc1cnc(CNC(=O)c2c(=O)c3ccc(N4CCCN(C)CC4)nc3n3c2sc2ccccc23)cn1 is strictly less than 60%?
label 0

Does this compound meet the criterion viability, T/C < 60%? COc1cccc2c1C(=O)c1c(O)c3c(c(O)c1C2=O)CC(O)(C(=O)CO)CC3OC1CC(N)C(O)C(C)O1 (stereo unspecified) + Cc1[nH]c2ccc(F)cc2c1-c1nc2c3cccnc3c3ncccc3c2[nH]1
label 0

Lab note: confirm whether the reported viability, T/C for this compound is below 60%, equality not counting. compound: COc1cc(C2c3cc4c(cc3C(OC3OC5COC(C)OC5C(O)C3O)C3COC(=O)C23)OCO4)cc(OC)c1O (stereo unspecified) + Cc1cnc(CNC(=O)c2c(=O)c3ccc(N4CCCN(C)CC4)nc3n3c2sc2ccccc23)cn1
label 0

Please check: viability, T/C for C=CC(=O)N1CCN(c2nc(=O)n(-c3c(C)ccnc3C(C)C)c3nc(-c4c(O)cccc4F)c(F)cc23)C(C)C1 (stereo unspecified) + Cc1[nH]c2ccc(F)cc2c1-c1nc2c3cccnc3c3ncccc3c2[nH]1 , strictly under 60% or not?
label 0

Given the entry Cn1ncnc1[C@H]1c2n[nH]c(=O)c3cc(F)cc(c23)N[C@@H]1c1ccc(F)cc1 + Cc1cnc(CNC(=O)c2c(=O)c3ccc(N4CCCN(C)CC4)nc3n3c2sc2ccccc23)cn1 , would its reported viability, T/C be below 60%?
label 0
